Data provenance is patent US20220402867A1.

target: RORγt (RORγ-LBD chimeric receptor) (Homo sapiens); construct: host or cells: HEK293T; test: Luciferase reporter gene assay of RORγt agonistic activity in HEK293T cells; assay type: cell-based; set-up: dose or concentration left out as unconfirmed; conditions: HEK-293T
Sequence (P51449 269-508 limits assumed, change not shown): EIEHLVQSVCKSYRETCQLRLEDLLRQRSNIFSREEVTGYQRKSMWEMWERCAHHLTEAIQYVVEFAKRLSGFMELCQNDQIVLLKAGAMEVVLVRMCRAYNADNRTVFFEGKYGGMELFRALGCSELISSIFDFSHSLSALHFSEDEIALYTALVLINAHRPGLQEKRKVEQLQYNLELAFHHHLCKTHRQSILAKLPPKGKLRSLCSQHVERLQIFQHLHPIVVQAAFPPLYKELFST
reportedMetric: Emax (%)

CCS(=O)(=O)c1ccc(C(CO)C(=O)Nc2cc(Cl)c(-c3ccc(S(=O)(=O)C4CC4)cc3)c(Cl)c2)cc1 (single isomer, unassigned) [Example 38]
103

(I) CCS(=O)(=O)c1ccc(C(COC)C(=O)Nc2cc(Cl)c(-c3ccc(S(=O)(=O)C4CC4)cc3)c(Cl)c2)cc1 (stereo not drawn) [Example 16]
(II) CS(=O)(=O)c1ccc(CC(=O)Nc2cc(Cl)c(-c3ccc(S(C)(=O)=O)cc3)c(Cl)c2)cc1 [Example 7]
Among I and II , whose measured Emax is the smaller figure? Select an item and report its label.
II

(P) CCS(=O)(=O)c1ccc(CC(=O)Nc2cc(Cl)c(-c3ccc(S(=O)(=O)C4CC4)cc3)c(Cl)c2)cc1 [Example 6]
(Q) CCS(=O)(=O)c1ccc(-c2c(Cl)cc(NC(=O)Cc3ccc(S(C)(=O)=O)cc3)cc2Cl)cc1 [Example 4]
Between the two listed entries P and Q , which has its Emax at the higher number? Select an item and report its label.
Q

(I) CCS(=O)(=O)c1ccc(CC(=O)Nc2cc(Cl)c(-c3ccc(S(=O)(=O)C(C)C)cc3)c(Cl)c2)cc1 [Example 3]
(II) CCS(=O)(=O)c1ccc(C(CO)C(=O)Nc2cc(Cl)c(-c3ccc(S(=O)(=O)C4CC4)cc3)c(Cl)c2)cc1 (stereo not drawn) [Example 22-1]
Between the two listed entries I and II , which has its Emax at the higher number? Select an item and report its label.
II
(II: 73.8%, I: 50.5%)
